Species on record: Homo sapiens
Assay: Ex vivo carbonic anhydrase activation was measured after 30 min of incubation of lysed human erythrocyte
Assay type: functional
Design: concentration or dose not given beside the values
For each record, write down the corresponding CA activity.
Answers are plain numbers, in %.

>  <givenSmiles>
CC(C)c1cc(-c2ccccc2)cc(C(C)C)[n+]1-c1nn[n-]n1

>  <CA activity [%]>
173

$$$$
>  <givenSmiles>
NCCc1c[nH]cn1

>  <CA activity [%]>
121

$$$$

For every record below, what is its CA activity?
1. Cc1cc(-c2ccccc2)cc(C)[n+]1-c1ncc[nH]1.[O-][Cl+3]([O-])([O-])[O-]
2. CC(C)c1cc(-c2ccccc2)cc(C(C)C)[n+]1-c1ncc[nH]1.[O-][Cl+3]([O-])([O-])[O-]

Outgoing:
1. 192
2. 256

====

Target: Carbonic anhydrase 1 (Homo sapiens) (UniProt P00915)
Sequence (P00915 2-261 limits assumed): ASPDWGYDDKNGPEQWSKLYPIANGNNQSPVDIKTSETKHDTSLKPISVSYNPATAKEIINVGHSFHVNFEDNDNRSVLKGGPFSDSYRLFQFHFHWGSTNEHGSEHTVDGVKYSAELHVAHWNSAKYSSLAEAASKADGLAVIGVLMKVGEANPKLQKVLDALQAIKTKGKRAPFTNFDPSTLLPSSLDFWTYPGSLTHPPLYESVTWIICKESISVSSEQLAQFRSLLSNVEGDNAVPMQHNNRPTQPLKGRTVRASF
Test: Activation of human Carbonic anhydrase I, using histamine as standard
readoutLabel: log10 of KA (log10 of the value in µM)
In our notation, the value equals log10 of KA in µM.

Worked cases, answers included:
>  <givenSmiles>
Cc1c2cc(c(C)[n+]1C1=NCC=N1)CCCCCCCCC2

>  <log10 of KA>
-1.66

$$$$
>  <givenSmiles>
CCCc1cc(-c2ccccc2)cc(CCC)[n+]1-c1ncc[nH]1

>  <log10 of KA>
-0.61

$$$$
>  <givenSmiles>
CCCCc1cc(-c2ccccc2)cc(-c2ccccc2)[n+]1-c1nn[n-]n1

>  <log10 of KA>
1.02

$$$$
>  <givenSmiles>
CCCCc1cc(-c2ccccc2)cc(CCCC)[n+]1-c1nn[n-]n1

>  <log10 of KA>
0.26

$$$$
>  <givenSmiles>
Cc1cc(C)[n+](-c2ncc[nH]2)c(-c2ccccc2)c1

>  <log10 of KA>
-0.44

$$$$

For every record below, what is its log10 of KA?
1. Cc1cc(C)[n+](-c2ncc[nH]2)c(C)c1
2. CCCCc1cc(-c2ccccc2)cc(-c2ccccc2)[n+]1-c1ncc[nH]1

Outgoing:
1: -1.44; 2: 0.38

Incoming: Annotate the compound CCCCc1cc(-c2ccccc2)cc(CCCC)[n+]1-c1cc[nH]n1 with its measured log10 of KA.
Outgoing: 0.25
